Reported MIC values are given for each entry in this list.
System: Aspergillus flavus
Test Protocol: Antifungal activity against Aspergillus flavus ATCC MYA-3631 measured after 48 hrs by CLSI M38-A2 protocol based method
Assay type: functional
Study Conditions: ATCC MYA-3631, 48 h

Past entries and their recorded results:
* Brc1ccc(N/N=C/c2ccc(-c3ccc(/C=N/Nc4ccc(Br)cc4)cc3)cc2)cc1 | > 31.3 µg/mL
* Fc1ccccc1N/N=C/c1ccc(-c2ccc(/C=N/Nc3ccccc3F)cc2)cc1 | > 31.3 µg/mL
* Fc1cccc(N/N=C/c2ccc(-c3cccc(/C=N/Nc4cccc(F)c4)c3)cc2)c1 | 3.9 µg/mL
* Fc1cccc(N/N=C/c2ccc(-c3ccc(/C=N/Nc4cccc(F)c4F)cc3)cc2)c1F | > 31.3 µg/mL
* COc1cccc(N/N=C(\C)c2ccc(-c3ccc(/C(C)=N/Nc4cccc(OC)c4)cc3)cc2)c1 | > 31.3 µg/mL

Note: attention shifts to another entry.
Exercise: Give recorded MIC with Aspergillus flavus for the following compound: COc1ccc(N/N=C/c2ccc(-c3cccc(/C=N/Nc4ccc(OC)cc4)c3)cc2)cc1
Solution: > 31.3 µg/mL

###

Reported selectivity ratio values are given for each entry in this list.
Test Protocol: Selectivity index, ratio of CC50 for human A549 cells to MIC for fluconazole/ITC-susceptible Candida albicans ATCC MYA-2310
Assay type: toxicity
Study Conditions: read-out: Selectivity Index
Give a plain numeric answer without units written out.

• C(=N\Nc1ccccc1)/c1ccc(-c2cccc(/C=N/Nc3ccccc3)c2)cc1 = 1
• COc1ccc(N/N=C/c2ccc(-c3ccc(/C=N/Nc4ccc(OC)cc4)cc3)cc2)cc1 = 8
• COc1ccc(N/N=C/c2ccc(-c3cccc(/C=N/Nc4ccc(OC)cc4)c3)cc2)cc1 = 2.3
• Fc1cccc(N/N=C/c2ccc(-c3ccc(/C=N/Nc4cccc(F)c4)cc3)cc2)c1 = 1
• Fc1ccc(N/N=C/c2ccc(-c3ccc(/C=N/Nc4ccc(F)cc4)cc3)cc2)cc1 = 1.1

Note: attention shifts to another entry.
Exercise: What does the data say about its selectivity ratio? Entry: Fc1cccc(N/N=C/c2ccc(-c3cccc(/C=N/Nc4cccc(F)c4)c3)cc2)c1
Solution: 0.4

###

Test system: BEAS-2B
Test Protocol: Cytotoxicity against human BEAS2B cells after 24 hrs by resazurin based assay
Assay type: cell-based
Reported CC50 values are given for each entry in this list.

Past entries and their recorded results:
* COc1ccc(N/N=C/c2ccc(-c3cccc(/C=N/Nc4ccc(OC)cc4)c3)cc2)cc1 | 14.1 µg/mL
* C/C(=N\Nc1ccc(F)cc1)c1ccc(-c2ccc(/C(C)=N/Nc3ccc(F)cc3)cc2)cc1 | 10.7 µg/mL

Exercise: What does the data say about its CC50? Entry: C(=N\Nc1ccccc1)/c1ccc(-c2ccc(/C=N/Nc3ccccc3)cc2)cc1
Solution: 11 µg/mL

Exercise: Lookup Fc1cccc(N/N=C/c2ccc(-c3ccc(/C=N/Nc4cccc(F)c4)cc3)cc2)c1
Solution: 16 µg/mL

Exercise: Lookup Fc1ccc(N/N=C/c2ccc(-c3cccc(/C=N/Nc4ccc(F)cc4)c3)cc2)cc1
Solution: > 31 µg/mL

###

Test Protocol: Selectivity index, ratio of CC50 for human A549 cells to MIC for fluconazole/ITC-resistant Candida albicans ATCC MYA-1237
Format: toxicity
Study Conditions: read-out: Selectivity Index
Measure Name: selectivity ratio
Give a plain numeric answer without units written out.

- Fc1ccc(N/N=C/c2ccc(-c3ccc(/C=N/Nc4ccc(F)cc4)cc3)cc2)cc1: 2.3
- Fc1ccc(N/N=C/c2ccc(-c3cccc(/C=N/Nc4ccc(F)cc4F)c3)cc2)c(F)c1: 2.1
- Fc1ccccc1N/N=C/c1ccc(-c2cccc(/C=N/Nc3ccccc3F)c2)cc1: 0.5
- C(=N\Nc1ccccc1)/c1ccc(-c2cccc(/C=N/Nc3ccccc3)c2)cc1: 1
- COc1ccc(N/N=C/c2ccc(-c3cccc(/C=N/Nc4ccc(OC)cc4)c3)cc2)cc1: 4.7

Exercise: What does the data say about its selectivity ratio? Entry: Fc1cccc(N/N=C/c2ccc(-c3cccc(/C=N/Nc4cccc(F)c4)c3)cc2)c1
Solution: 0.8
